- test_method_notes: Resistance to Poly (ADP-Ribose) Polymerase inhibitor: Gene Identification via Genome-wide siRNA Screen
- condition_description: mouse BRCA2 R2336H ES cells, olaparib, CellTiter-Glo viability; active compounds read high
About 210 (0.4%) of roughly 52,000 sequences were called active. The sample as a whole holds a higher share of actives than the screen did.
For each record, write down the corresponding z-score.
Give bare numbers.

{"macromolecule_sequence": "CCUUAUUGGGUCAUAAGCATT against 2210403B10Rik", "z-score": 0.798}

Please give z-score for each item listed below.
1. CCCUUGGAGGAAGCUAACUTT against Pde2a
2. GGAGAUGGCUUCUCUCUCGTT against Rarg
3. CCAAAACAACCACAAGUAGTT against A930006D11
4. GCACACCCAAUGCUCUAAGTT against Mare
5. CCUUGUAUCCUUAAUCCUCTT against Ppt1

Response given:
1. 1.27
2. 1.37
3. -2.39
4. 0.284
5. 0.555

Please give z-score for each item listed below.
1. GGCGGUGAUCCAGGGUUUATT against Klc2
2. GGUUUUUGAGCCAUAUCCATT against 4632404H22Rik
3. CCAUCUGAUUUCUUUCCAGTT against MGC78233
4. GGACGAACCUUUAUACCAGTT against Arhgef15
5. GGAGAUGACGUGAAAACAATT against Srf
6. GGCUGUAAUGAGGACUGAUTT against Deb1

Response given:
-0.0337
0.625
-0.642
-1.21
1.93
-1.92

Challenge: Data request, read-out z-score, for GACCGAGUUCAAAGCGAACTT against Atp5e
Response given: -2.59

====

- test_method_notes: Resistance to Poly (ADP-Ribose) Polymerase inhibitor: Gene Identification via Genome-wide siRNA Screen
- condition_description: mouse BRCA2 R2336H ES cells, olaparib, CellTiter-Glo viability; active compounds read high
The campaign covered roughly 52,000 sequences. About 210 (0.4%) were called active. Only a selection was taken, and actives are over-represented in it overall.
For each record, write down the corresponding z-score.

Consider the worked cases shown below.
{"macromolecule_sequence": "GGGAUUUUCUGUGUAUCUUTT against D5Ertd33e", "outcome_measure": "z-score", "val": "-0.0623 (inactive)"}
{"macromolecule_sequence": "GGAAACCAGACUUUCCCUATT against V1ra5", "outcome_measure": "z-score", "val": "-0.806 (inactive)"}
{"macromolecule_sequence": "GGUCGGUGUUUUAUCUGCUTT against BC019537", "outcome_measure": "z-score", "val": "-1.19 (inactive)"}
{"macromolecule_sequence": "GCACGUGGGCUAUUCCUACTT against Gria1", "outcome_measure": "z-score", "val": "2.78 (active)"}

Please give z-score for each item listed below.
1. GGACUACCUCACACUCUUCTT against Oprs1
2. GGUGAUACGUAUUUUUUAGTT against 2700050F09Rik
3. GGAUGAAGAGAAAAAUUGATT against Slc20a1
4. GGCGCAUGUUUCCAGCAAUTT against Tbx18

Response given:
["-0.235 (inactive)", "1.03 (active)", "2.96 (active)", "1.87 (inactive)"]

====

- test_method_notes: Resistance to Poly (ADP-Ribose) Polymerase inhibitor: Gene Identification via Genome-wide siRNA Screen
- condition_description: mouse BRCA2 R2336H ES cells, olaparib, CellTiter-Glo viability; active compounds read high
About 210 (0.4%) of roughly 52,000 sequences were called active. The full list was thinned out, with actives kept by preference.
For each record, write down the corresponding z-score.
Answers are plain numbers.

{"macromolecule_sequence": "GGAUAAUUCAGACAACAAUTT against Fus", "outcome_measure": "z-score", "val": 3.47}
{"macromolecule_sequence": "GGUUGGCCAUAUAAAGAGATT against Smarca3", "outcome_measure": "z-score", "val": 0.771}
{"macromolecule_sequence": "GGCAGCGCAAUGGAUUAGUTT against Chrng", "outcome_measure": "z-score", "val": 1.99}

Please give z-score for each item listed below.
1. CUAGUAGGGUCAGAAUUUUTT against Olfr329
2. CCUAUGUCAUCAUUGGAGUTT against 2310005G13Rik
3. GGCUAUGCAGCAUAUUAUATT against Ndufa1
4. GUCACUUGGCUUCCAUUGATT against Olfr510

Response given:
[2.11, 0.537, -0.819, 1.19]

Please give z-score for each item listed below.
1. GGAGGAGAGGUACAAACGGTT against Cxxc1
2. GCCACCUUGUUUCUCGAACTT against 1810008A18Rik
3. CCUGUUUACAAGGAAUUGATT against Itgb1
4. CGAUAAUUUGGCUAAGUAUTT against Pip5k3
5. GCAAAACCUACUGCGUGGATT against 2410195B05Rik
6. GGAAAAAUGGGAGUUUGAATT against 4932423M01Rik

Response given:
1: -1.2; 2: 0.925; 3: 0.411; 4: 0.0345; 5: 0.682; 6: -0.322

Please give z-score for each item listed below.
1. GUUGAGGAUAACAUUGAACTT against MGC102419
2. GGAACUGCUUACGAAAUACTT against Lama4
3. GAGUCCCUUGGCAGCUCAUTT against Klra8
4. GGAAAGUGGUUUUGUCCACTT against Ing5

Response given:
[-0.623, -0.374, -0.753, 1.74]

====

- test_method_notes: Resistance to Poly (ADP-Ribose) Polymerase inhibitor: Gene Identification via Genome-wide siRNA Screen
- condition_description: mouse BRCA2 R2336H ES cells, olaparib, CellTiter-Glo viability; active compounds read high
Screen size: about 52,000 sequences; about 210 (0.4%) were called active. This excerpt belongs to a sample that is enriched for actives.
outcome_measure: z-score

Consider the worked cases shown below.
{"macromolecule_sequence": "GGCUAGAGACUUGGUUUUUTT against E430025L02Rik", "z-score": "1.23 (inactive)"}
{"macromolecule_sequence": "GGAUAAUGGUAUCUACUUCTT against Cd79b", "z-score": "-0.408 (inactive)"}
{"macromolecule_sequence": "GGAGAGCUGGAACAAUAGCTT against Bcl2l2", "z-score": "2.66 (active)"}
{"macromolecule_sequence": "GCAUCGUUACAGGACUUUATT against Enpp1", "z-score": "-0.601 (inactive)"}
{"macromolecule_sequence": "GGCGAUCUAUCACACUGUGTT against Chst7", "z-score": "1.39 (inactive)"}

Please give z-score for each item listed below.
1. GGCAUCUGUUAUUGAAGUGTT against Vit
2. GGAGAUAAAGUCUUAUCACTT against 9130017N09Rik
3. GCUUAAGGACGCAUUGAAATT against Pthlh
4. CCAUGCAUCUAAGUCUCGATT against Trpm3
5. GGCCUUCUCUGACUUUCUGTT against D430030K24Rik

Response given:
1. 0.771 (inactive)
2. 0.803 (inactive)
3. -0.0187 (inactive)
4. 1.35 (inactive)
5. 3.28 (active)
